Assign EC50 to each entry below.
# target.or.test.system: S. pyogenes SKKanGAS, kanamycin survival, BacTiterGlo, 6 h
# assay.text: S. pyogenes SKKanGAS kanamycin growth inhibitors – SKKanGAS strain, luminescence, dose confirmation, streptokinase promoter inhibitor project, dose response (AID 1902);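 note: lower survival reflects blocked streptokinase promoter driving kanamycin resistance gene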
The source made the active and inactive calls.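 Rule for the calls: active = EC50 no more than a set limit of log units above the highest dose; inactive = the rest.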

Example entries begin here.
CCOc1ccc2nc(N3C(=O)/C(=C/c4ccc(Cl)cc4)NC3=S)sc2c1 | 1.3 µM
Oc1ccc(Cl)cc1-c1cc(-c2cccc(Br)c2)n[nH]1 | 3.62 µM
COCCCn1c(N)c(C(=O)Nc2ccccc2)c2nc3ccccc3nc21 | 11.8 µM
FC(F)(F)c1cccc(NC(=S)NNC(=S)Nc2cccc(C(F)(F)F)c2)c1 | 0.804 µM

Please report EC50 for every entry that follows.
1. O=C(CSc1ccccn1)N/N=C/c1cc([N+](=O)[O-])ccc1O
2. Cc1cc2c(cc1C)-c1c(ssc1=Nc1ccc(S(N)(=O)=O)cc1)C(C)(C)N2
3. CCC1(C)Cc2c(sc3nc(SC)[nH]c(=S)c23)CO1 (stereo unspecified)
4. N#CCSc1nc2ccc(N3CCOCC3)cc2c(=O)n1CCc1ccccc1
5. O=C(N/N=C/c1cc([N+](=O)[O-])ccc1O)c1cccc(N2CCCC2=O)c1

result:
1.04 µM
11.7 µM
1.87 µM
3.71 µM
1.21 µM

// for each molecule in input: emit EC50
1. COc1ccccc1CCNC(=O)C(=O)c1cn(CC(=O)N2CCCC2)c2ccccc12
2. Fc1ccc(-n2cc(-c3ccccc3)c3c(=S)nc[nH]c32)cc1
3. O=c1cc(N2CCCCC2)c(-c2ccccc2)nn1Cc1c(Cl)cccc1Cl
4. O=C(COC(=O)c1ccccc1)Nc1ccccc1Sc1ccccc1
5. CC(C)C1O/C(=N/C(=O)Nc2ccc(Cl)c(Cl)c2)NC1=O (stereo unspecified)
6. CCN(c1ccc(OC)cc1)S(=O)(=O)c1nnc(NC(=O)c2ccccc2Cl)s1
7. CC1CCN(Cc2c(C(=O)N/N=C/c3cc(Cl)ccc3O)nnn2-c2nonc2N)CC1
8. CC(=O)Nc1nc2ccccc2n1CCOc1ccccc1

result:
1. > 15 µM (inactive)
2. 8.7 µM
3. 4.69 µM
4. 8.89 µM
5. 2.53 µM
6. 3.31 µM
7. 2.67 µM
8. 11.3 µM

* * *

# target.or.test.system: S. pyogenes SKKanGAS, kanamycin survival, BacTiterGlo, 6 h
# assay.text: S. pyogenes SKKanGAS kanamycin growth inhibitors – SKKanGAS strain, luminescence, dose confirmation, streptokinase promoter inhibitor project, dose response (AID 1902)
Calls of active or inactive are those of the source.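 The calls were made as follows: active = EC50 no more than a set limit of log units above the highest dose; inactive = the rest.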
Field 'call' accepts yes = active, no = inactive

query: Per the assay record, what outcome was assigned to O=C(O)c1ccc(N/N=C/c2ccc(OC(=O)c3ccccc3Cl)cc2)cc1 ?
result: yes

query: Also check COc1cccc(C(=O)N2C(C(=O)O)CSC2c2ccccc2Cl)c1 (stereo not given)
result: no

query: Lookup Cc1nc2ccccc2c(=O)n1/N=C/c1cc(Br)cc(Br)c1O
result: yes

query: Next molecule up: Cc1ccc(O)c(NC(=S)NC(=O)c2ccc(-c3ccc(Cl)cc3)o2)c1
result: yes

query: Try COc1ccc(C(=O)NCC(=O)OCCCOC(=O)CNC(=O)c2ccc(OC)c(OC)c2)cc1OC next.
result: no

query: Can you check COc1ccc2cc(C(=O)/C=C/c3cc(OC)c(O)c(OC)c3)ccc2c1 next?
result: yes

query: Next entry: Cc1ccc(/C=C/C(=O)c2ccccc(=O)c2O)c(C)c1
result: yes

query: // next record Cc1cccc(Cn2nc(-n3cccc3)c3c(C)cc(C)nc32)c1
result: yes

query: Now the molecule CCc1ccc(N(CC(=O)NC2CC2)S(=O)(=O)c2ccc(C)cc2)cc1
result: no

query: Input COc1ccc(-n2nc(C(=O)c3cccs3)cc(-c3nc4ccccc4[nH]3)c2=N)cc1
result: yes

* * *

# target.or.test.system: S. pyogenes SKKanGAS, kanamycin survival, BacTiterGlo, 6 h
# assay.text: S. pyogenes SKKanGAS kanamycin growth inhibitors – SKKanGAS strain, luminescence, dose confirmation, streptokinase promoter inhibitor project, dose response (AID 1902)
measurement.name: EC50

The examples below pair each entry with its known result.
CN(C)CCCNc1cc(C(C)(C)C)nc2c(-c3ccc(Cl)cc3)cnn12 | 1.94 µM
CCn1c(=O)n(CC)c2cc(N3CCCC3)c(NC(=O)c3cc(Br)ccc3OC)cc21 | 4.28 µM
N#C/C(=C(/O)Cc1cccc2ccccc12)c1nc2ccccc2s1 | 1.36 µM
COc1cccc(/C=N/n2c(N)nc3ccccc32)c1OC | 5.93 µM
O=C(O)c1ccccc1N/N=C/c1cc(Br)cc(Br)c1O | 7.96 µM
COc1cc(Cc2cc(N)nc(N)n2)cc(OC)c1OC | 4.31 µM
CCOC(=O)c1c(NC(=S)N2CCN(C)CC2)sc(C)c1-c1ccccc1 | 6.51 µM
CCOC(=O)c1ccc(NC(=O)c2nc[nH]c2C(=O)NCCCCCNC(=O)OC(C)(C)C)cc1 | 2.83 µM

Dear reader, for each entry below, please note its EC50.
1. O=C(CNC(=O)c1ccc(F)cc1)N/N=C/c1cc(Br)ccc1OCc1ccccc1
2. Nc1ncc(Br)cc1S(=O)(=O)Nc1cc(C(F)(F)F)cc(C(F)(F)F)c1
3. Oc1ccc(N=Nc2ccc3c(c2)OCCO3)c2cccnc12
4. COc1ccc(O)c(C(=O)c2cc(SCC(=O)O)c3nc4sc5c(c4c(=O)n3c2)CCCC5)c1
5. COc1cccc(/C=N/NC(=O)c2cc3c(OC)ccc(OC)c3[nH]2)c1O
6. Cc1ccc(C(=O)C(c2ccccc2)N2Cc3ccccc3C2=N)cc1 (stereo unspecified)
7. O=[N+]([O-])c1ccc(/C=N/Nc2nc(N3CCCCCC3)nc(N3CCCCCC3)n2)o1
8. CCC(=O)N1N=C(c2c(O)n(C)c(=O)n(C)c2=O)CC1c1ccccc1 (stereo unspecified)

result:
12.2 µM
6.39 µM
0.257 µM
4.1 µM
2 µM
5.75 µM
0.618 µM
2.42 µM

* * *

# target.or.test.system: S. pyogenes SKKanGAS, kanamycin survival, BacTiterGlo, 6 h
# assay.text: S. pyogenes SKKanGAS kanamycin growth inhibitors – SKKanGAS strain, luminescence, dose confirmation, streptokinase promoter inhibitor project, dose response (AID 1902);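 active means EC50 no more than a set limit of log units above the highest dose; inactive means the rest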;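 note: lower survival reflects blocked streptokinase promoter driving kanamycin resistance gene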
Hi! Could you answer with just one of these? label 1 for active, label 0 for inactive

Worked set:
O=[N+]([O-])c1ccc(-c2nc(-c3cccs3)c(-c3cccs3)[nH]2)cc1 | label 1
c1ccc(N2CCN(c3nc(-c4ccccn4)nc4ccccc34)CC2)cc1 | label 1
CCn1cc(C(=O)OCC(=O)c2cc(C)n(-c3cccc(C(F)(F)F)c3)c2C)c(=O)c2ccc(C)nc21 | label 1

query: Hey, what did the test say about CCCCCC(=O)Cc1cc(O)cc2c1C(=O)Oc1cc(O)c(C(=O)O)c(CCCCC)c1O2 ?
result: label 1

query: Repeat with CCCCn1c(=O)c(C(=O)NCCc2ccccc2)c(O)c2ccccc21
result: label 1

query: And then Cc1nn(-c2ccccc2)c(C)c1/C=N/NC(=O)c1cc(-c2ccc(Br)s2)[nH]n1 , what is it?
result: label 1

query: Same thing, different molecule: COc1ccc(C(=O)NC(=S)Nc2ccc(N3CCOCC3)c(Cl)c2)cc1[N+](=O)[O-]
result: label 1

query: Follow-up item: CCC(C)c1ccc(C2C3=C(Nc4nc(N)[nH]c(=O)c42)c2ccccc2C3=O)cc1 (stereo unspecified)
result: label 1

query: Same question for O=C(NC(NC(=S)Nc1c(Cl)cccc1Cl)C(Cl)(Cl)Cl)OCc1ccccc1 (stereo unspecified) please.
result: label 1

* * *

# target.or.test.system: S. pyogenes SKKanGAS, kanamycin survival, BacTiterGlo, 6 h
# assay.text: S. pyogenes SKKanGAS kanamycin growth inhibitors – SKKanGAS strain, luminescence, dose confirmation, streptokinase promoter inhibitor project, dose response (AID 1902);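 note: lower survival reflects blocked streptokinase promoter driving kanamycin resistance gene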
Calls of active or inactive are those of the source.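 How the source made its calls: active means EC50 no more than a set limit of log units above the highest dose; inactive means the rest.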
measurement.name: EC50

CCC(CC)C1=NN2C(=N)/C(=C\c3cc(C)n(-c4cccc(C)c4)c3C)C(=O)N=C2S1 | 2.91 µM

I'm hoping you can list EC50 for every molecule here, please.
1. Cc1ccc(F)c(NC(=O)/C(C#N)=C(\O)c2ccc(C(C)(C)C)cc2)c1
2. O=C(CSc1nnc(CNC(=O)c2ccccc2)o1)NCc1ccccc1
3. Cc1ccccc1CN(C)CC(=O)Nc1ccccc1-c1ccccc1
4. CCc1c(C)c(C#N)c2[nH]c3ccccc3n2c1=S

result:
1: 6.33 µM; 2: > 15 µM (inactive); 3: 3.3 µM; 4: 14.1 µM

* * *

# target.or.test.system: S. pyogenes SKKanGAS, kanamycin survival, BacTiterGlo, 6 h
# assay.text: S. pyogenes SKKanGAS kanamycin growth inhibitors – SKKanGAS strain, luminescence, dose confirmation, streptokinase promoter inhibitor project, dose response (AID 1902);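 note: lower survival reflects blocked streptokinase promoter driving kanamycin resistance gene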
The source made the active and inactive calls.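 Rule for the calls: active = EC50 no more than a set limit of log units above the highest dose; inactive = the rest.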
Outcome (select one): y (active), n (inactive)

Check out these entries, answers already filled in.
COc1ccc(/C=N/n2c(C)nc3c([nH]c4ccccc43)c2=O)cc1CN1CCCC(C)(C)C1 | y
CCCN(CCC)S(=O)(=O)c1ccc(C(=O)Nc2nnc(-c3cc(OC)cc(OC)c3)o2)cc1 | y
CCc1ccc(OCC(=O)NNC(=S)NC(=O)C2CCCCC2)c(Br)c1 | y
CC(=O)Oc1ccc(-c2nc(-c3cccnc3)no2)cc1 | y
Cc1nn2c(N3CCN(C(=O)c4ccco4)CC3)cc(C(C)(C)C)nc2c1-c1ccccc1 | y
CCN(c1ccc(C)cc1C)S(=O)(=O)c1nnc(NC(=O)c2ccco2)s1 | y
O=C(CSc1nnc(NC(=O)c2ccccc2[N+](=O)[O-])s1)NC1CCCC1 | n
CC(C)(O)c1ccccc1CC[C@@H](SCC1(CC(=O)O)CC1)c1cccc(/C=C/c2ccc3ccc(Cl)cc3n2)c1 | y
CC1(C(=O)OCC(=O)Nc2nc(-c3ccc(F)c(F)c3)cs2)CC1(Cl)Cl (stereo not given) | y

Moving on to another compound below.
query: State the result this test recorded for O=C(COc1ccc(F)cc1Cl)Nc1nc(-c2ccccn2)cs1 .
result: y
